// values below are reported apparent KD of K4 kissing-loop reporter
tested on: K4 kissing-loop RNA reporter; assay: apparent KD of K4 kissing-loop reporter; higher = weaker reporter binding; conditions: Eterna round: R107; input ligand: arginine 13.2 mM;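 also: bound reporter read as fluorescence of individual clusters on recovered sequencing chips by microscopy, with normalized cluster intensities fitted with a binding model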
Only the number, expressed in nM, is required.

The examples below pair each entry with its known result.
>  <SEQUENCE_ENTRY>
AGAACUGUCUGGGAUACCAGCCGAGGAGUGAUGUUCCGGCUCGACGAAACGUCGAGCCACGGCCCUUGGCAGCUCAGACAGUUCA [#21 K4 Theophylline B Same State]

>  <RESULT_VALUE>
332

$$$$
>  <SEQUENCE_ENTRY>
UGUGAACAAAAGUAGAGUGGACCACUAUAGCGAGGACCGGUACGGCCGCCACUCGUACAUGUAUUCAGUGAUGUUGAAAUGAGCU [whbob_EX_Tryp_A_t15]

>  <RESULT_VALUE>
319

$$$$
>  <SEQUENCE_ENTRY>
UUUUAAAUGUCUGAUACCAGAGAAAAUAUAUGUAGUGAUGUUAUAUACAAAUUGAAUAAGCUCCCUUGGCAGCAGUAUUAAUUUU [AstrosExc-TheB#11]

>  <RESULT_VALUE>
643

$$$$
>  <SEQUENCE_ENTRY>
UUUGGUUUCUCGGCCGCCACUCGUGGGAAAUGGGCCUCAGGGAUAUAGUGAUGUUAUGUAAAGAAGAGGACCGGGAGAAGGAAGG [ExTryptoB.Dl]

>  <RESULT_VALUE>
253

$$$$
>  <SEQUENCE_ENTRY>
GUUACGCAUGGAAGGAGCGCAUGCUCAACAAUAAGCUCAGUGAUGUUGAGCAAAAUUAAAAUGCAGGUAGGUCGCCAUGUGUAAC [Ex Arginine B K4 28]

>  <RESULT_VALUE>
519

$$$$

Please find the next sequence below.
Q: Fill in: apparent KD of K4 kissing-loop reporter of AAGCAGUCACUCGUAUCCAUCGAAGAUGGUCGAGGACCGGUACGGCCGCCACUCGGAGUGAUGUUCCGAAGACUGCAAAAUAAAA [#SwitchBubble 13] is ___
Ans: 230

* * *

tested on: MS2 coat protein; experiment: apparent KD of MS2 coat protein; higher = weaker reporter binding; conditions: Eterna round: R107; input ligand: tryptophan 2.4 mM
# apparent KD of MS2 coat protein values compiled below
Response body: numeric value in nM, unit text excluded.

>  <SEQUENCE_ENTRY>
CUCCGAGGCUAUACUAUCCGCCUCUGUGAUACCAGAAUACCUAUAUUCCCUUGGCAGCAUCACAUGAGGAUCACCCAUGUGCCAU [SSTheo A #13]

>  <EXPERIMENTAL_READOUT>
apparent KD of MS2 coat protein

>  <UNIT_ABBREV>
nM

>  <RESULT_VALUE>
13.9

$$$$
>  <SEQUENCE_ENTRY>
GGGCGCUAUCCCGCGAGGGAUAGCGUUCUUCGAGGACCGGUACGGCCGCCACUCGAACGAGUGGUGACAUGAGGAUCACCCAUGU [Paa]

>  <EXPERIMENTAL_READOUT>
apparent KD of MS2 coat protein

>  <UNIT_ABBREV>
nM

>  <RESULT_VALUE>
58.7

$$$$
>  <SEQUENCE_ENTRY>
CAUGGGUGGGUGCUGCCACCCAUUGGUGAUACCAGCAUCGAAAGAUGCCCUUGGCAGCACCAACAUGAGGAUCACCCAUGUAAUA [(M)'-(T)'-(M)''-(T1)-(T2)-(M1)-(M2)_Design4]

>  <EXPERIMENTAL_READOUT>
apparent KD of MS2 coat protein

>  <UNIT_ABBREV>
nM

>  <RESULT_VALUE>
67.8

$$$$
>  <SEQUENCE_ENTRY>
AGAUGACACAGUGGAUAGCAAGAUGCCGAUACCAGCUAGGAAACUAGCCCUUGGCAGCGGUACAUGAGGAUCACCCAUGUAUCCU [EThA NP+V+V2 #10]

>  <EXPERIMENTAL_READOUT>
apparent KD of MS2 coat protein

>  <UNIT_ABBREV>
nM

>  <RESULT_VALUE>
13.4

$$$$
>  <SEQUENCE_ENTRY>
AGCCCUGUACUAGAUACCAGCUACAUGAGGAUCACCCAUGUGCGUCAAGACUGACUGUGUAGCCCUUGGCAGCUACUCGCAUGUA [Exclusion - Theophylline B (Freestyle 3)]

>  <EXPERIMENTAL_READOUT>
apparent KD of MS2 coat protein

>  <UNIT_ABBREV>
nM

>  <RESULT_VALUE>
14.9

$$$$

Q: Request the reported apparent KD of MS2 coat protein associated with CGAUCUUUCGAAAGAAGGAUCGAGUCUGAUACCAGAGACGAAAGUCUCCCUUGGCAGCAGUGCCAACAUGAGGAUCACCCAUGUA [Theophylline A 9]
Ans: 18.9

Q: # query: apparent KD of MS2 coat protein of entry AGGAAAACAUGAGCAAAGCUCAUGUGCGAAGGAGCGGCGGAAACGCCAGGUAGGUCGCGCACAUGAGCAUCAGCCAUGUGUAUCA [Omei Arginine B SS A v4]
Ans: 31.6

Q: What value of apparent KD of MS2 coat protein has been reported for the following sequence? GGGCCUACCUGAAGGAGCGACAUGAGGAUCACCCAUGUCUCCCGUUAUGGGAGUUCUUUAGGUCAGGUAGGUCGCAGGUAGGGCC [#1 Exclusion - Arginine B Attempt #4 (Inspired by Omei)]
Ans: 14.1
